Test system: barnyardgrass (Echinochloa crus-galli)
measurementDescription: Test A postemergence, visual plant response rating
Type: in vivo
experimentalContext: 500 g ai/ha, postemergence; 0 is no effect, 100 is complete control
Lab note: cut-off is 50. Strictly less in Barnyardgrass plant response rating (0 to 100 scale) is Fulfilled. Exactly 50 or more is Not fulfilled.

Answered examples (5):
Input line: A record lists CO/N=C(\c1sccc1C)c1c(O)c(C)nn(C)c1=O [Compound 42] . Is its Barnyardgrass plant response rating (0 to 100 scale) below 50?
Output line: Fulfilled

Input line: Can you check CON=C(c1ccccc1Cl)c1c(O)c(C)nn(C)c1=O (stereo in doubt) [Compound 29] next?
Output line: Fulfilled

Input line: Can you check CCn1nc(C)c(O)c(C(=NOC)c2cccc(Cl)c2)c1=O (mixture of isomers) [Compound 2] next?
Output line: Fulfilled

Input line: Can you check CON=C(c1c(O)c(C)nn(C)c1=O)c1ccc(Cl)c2ccccc12 [Compound 40] next?
Output line: Fulfilled

Input line: Can you check CON=C(c1c(O)c(C)nn(C)c1=O)c1cccc2ccsc12 (single isomer, unassigned) [Compound 47] next?
Output line: Fulfilled

Next:
Input line: A record lists C=CCON=C(c1c(O)c(C)nn(C)c1=O)c1cc(Br)cc2ccccc12 [Compound 115] . Is its Barnyardgrass plant response rating (0 to 100 scale) below 50?
Output line: Not fulfilled

Input line: Can you check CCO/N=C(\c1cccc(C)c1C)c1c(O)c(C)nn(C)c1=O [Compound 25] next?
Output line: Fulfilled

Input line: Can you check CO/N=C(\c1c(O)c(C)nn(C)c1=O)c1cccc2ccccc12 [Compound 26] next?
Output line: Not fulfilled

###

System: wheat (Triticum aestivum)
measurementDescription: Test A postemergence, visual plant response rating
Assay type: in vivo
experimentalContext: Postemergence, 125 g ai/ha; 0 to 100 scale (0 no effect, 100 complete control)
Listed below: Wheat plant response rating values for each entry.
# answer = number (no unit)

Recorded Wheat plant response rating, per entry:
Input line: Wheat plant response rating for CON=C(c1c(O)c(C)nn(C)c1=O)c1cccc2ccsc12 (single isomer, unassigned) ?
Output line: 0

Input line: Can you check `CO/N=C(\c1cccc(C(F)(F)F)c1)c1c(O)c(C)nn(C)c1=O` next?
Output line: 20

Next:
Input line: Wheat plant response rating for `CON=C(c1ccccc1C1CC1)c1c(O)c(C)nn(C)c1=O` ?
Output line: 60

Input line: Can you check `CO/N=C(\c1c(O)c(C)nn(C)c1=O)c1cccc2ccccc12` next?
Output line: 0

Input line: Can you check CON=C(c1c(O)c(C)nn(C)c1=O)c1cccc2ccc(Cl)cc12 [Compound 110] next?
Output line: 0

Input line: Can you check `CCO/N=C(\c1cccc(C)c1C)c1c(O)c(C)nn(C)c1=O` next?
Output line: 0

Input line: Can you check `CO/N=C(/c1cccc(Cl)c1)c1c(O)c(C)nn(C)c1=O` next?
Output line: 0

Input line: Can you check `C#CCO/N=C(/c1c(O)c(C)nn(C)c1=O)c1cccc2ccccc12` next?
Output line: 50

Input line: Can you check C=CCON=C(c1c(O)c(C)nn(C)c1=O)c1cc(Br)cc2ccccc12 [Compound 115] next?
Output line: 20

###

Listed below: Blackgrass plant response rating (0 to 100 scale) values for each entry.
Tested on: blackgrass (Alopecurus myosuroides)
measurementDescription: Test A postemergence, visual plant response rating
Format: in vivo
experimentalContext: 500 g ai/ha, postemergence; 0 is no effect, 100 is complete control
# answer = number (no unit)

Recorded Blackgrass plant response rating (0 to 100 scale), per entry:
Input line: Blackgrass plant response rating (0 to 100 scale) for `CO/N=C(/c1cscc1C)c1c(O)c(C)nn(C)c1=O` ?
Output line: 0

Input line: Can you check `CON=C(c1c(O)c(C)nn(C)c1=O)c1ccc(OC)c2ccccc12` next?
Output line: 80

Input line: Can you check `C#CCO/N=C(/c1c(O)c(C)nn(C)c1=O)c1ccc(F)c2ccccc12` next?
Output line: 100

Input line: Can you check `CO/N=C(\c1cccc(C#N)c1)c1c(O)c(C)nn(C)c1=O` next?
Output line: 20

Input line: Can you check `CO/N=C(\c1cccc(S(C)(=O)=O)c1)c1c(O)c(C)nn(C)c1=O` next?
Output line: 0

Input line: Can you check `CCCO/N=C(\c1c(O)c(C)nn(C)c1=O)c1cccc2ccccc12` next?
Output line: 90

Input line: Can you check `CO/N=C(\c1sccc1C)c1c(O)c(C)nn(C)c1=O` next?
Output line: 0

Input line: Can you check `Cc1ccc(Cl)cc1/C(=N\O)c1c(O)c(C)nn(C)c1=O` next?
Output line: 20

Input line: Can you check `Cc1nn(C)c(=O)c(/C(=N/OC(C)C)c2ccc(F)c3ccccc23)c1O` next?
Output line: 90

Input line: Can you check CON=C(c1c(O)c(C)nn(C)c1=O)c1cccc2cc(Br)ccc12 [Compound 96] next?
Output line: 100

Next:
Input line: Blackgrass plant response rating (0 to 100 scale) for `CON=C(c1cc(Cl)ccc1Cl)c1c(O)c(C)nn(C)c1=O` ?
Output line: 90

Input line: Can you check `CO/N=C(\c1cccc(C)c1)c1c(O)c(C2CC2)nn(C)c1=O` next?
Output line: 10

Input line: Can you check `CO/N=C(/c1c(OC(C)=O)c(Cl)nn(C)c1=O)c1cccc2ccccc12` next?
Output line: 60

###

Test system: blackgrass (Alopecurus myosuroides)
measurementDescription: Test C postemergence, visual plant response rating
Assay type: in vivo
experimentalContext: Test C, postemergence, 125 g ai/ha
Listed below: Blackgrass plant response rating (0 to 100 scale) values for each entry.
# answer = number (no unit)

Recorded Blackgrass plant response rating (0 to 100 scale), per entry:
Input line: Return Blackgrass plant response rating (0 to 100 scale) measured with blackgrass (Alopecurus myosuroides) given this molecule: `CO/N=C(\c1c(O)c(C)nn(C)c1=O)c1cc(SC)cc2ccccc12`
Output line: 0

Input line: Can you check CON=C(c1ccc(F)c(Br)c1)c1c(O)c(C)nn(C)c1=O [Compound 177] next?
Output line: 0

Input line: Can you check `Cc1nn(C)c(=O)c(/C(=N/OCCO)c2cccc3cc(Cl)ccc23)c1O` next?
Output line: 10

Input line: Can you check `CC(C)O/N=C(/c1c(O)c(Cl)nn(C)c1=O)c1cc(Br)cc2ccccc12` next?
Output line: 50

Input line: Can you check CCON=C(c1cc(Cl)cc(Br)c1)c1c(O)c(C)nn(C)c1=O [Compound 181] next?
Output line: 20

Input line: Can you check CON=C(c1ccc(F)c(Br)c1)c1c(O)c(C)nn(C)c1=O [Compound 176] next?
Output line: 30

Input line: Can you check `CCO/N=C(/c1c(O)c(Cl)nn(C)c1=O)c1cc(Br)cc2ccccc12` next?
Output line: 30

Input line: Can you check `CON=C(c1cc(C)cc(Cl)c1)c1c(O)c(C)nn(C)c1=O` next?
Output line: 40

Input line: Can you check `CO/N=C(/c1cc(Cl)cc(Br)c1)c1c(O)c(C)nn(C)c1=O` next?
Output line: 30

Input line: Can you check `CO/N=C(/c1c(O)c(C)nn(C)c1=O)c1cccc2cc(SC)ccc12` next?
Output line: 0

Next:
Input line: Return Blackgrass plant response rating (0 to 100 scale) measured with blackgrass (Alopecurus myosuroides) given this molecule: CON=C(c1cc(Cl)cc(Cl)c1F)c1c(O)c(C)nn(C)c1=O [Compound 153]
Output line: 80

Input line: Can you check `CO/N=C(\c1ccc(F)c(Cl)c1)c1c(O)c(C)nn(C)c1=O` next?
Output line: 0

Input line: Can you check CCON=C(c1cc(Cl)cc(Br)c1)c1c(O)c(C)nn(C)c1=O [Compound 180] next?
Output line: 30

Input line: Can you check `CCCCO/N=C(\c1cc(Cl)cc(Cl)c1Cl)c1c(O)c(C)nn(C)c1=O` next?
Output line: 0

Input line: Can you check `C#CCO/N=C(/c1cc(Cl)cc(Br)c1)c1c(O)c(C)nn(C)c1=O` next?
Output line: 70

Input line: Can you check `CCO/N=C(/c1c(O)c(C)nn(C)c1=O)c1cccc2cc(Cl)ccc12` next?
Output line: 70

Input line: Can you check `C#CCON=C(c1cccc(OCC(F)(F)F)c1)c1c(O)c(C)nn(C)c1=O` next?
Output line: 30

Input line: Can you check `CCO/N=C(\c1c(O)c(Cl)nn(C)c1=O)c1ccc(F)c2ccccc12` next?
Output line: 0

Input line: Can you check `C#CCO/N=C(/c1c(O)c(C)nn(C)c1=O)c1cc(Cl)cc2ccccc12` next?
Output line: 70

Input line: Can you check CON=C(c1cc(F)cc(F)c1F)c1c(O)c(C)nn(C)c1=O [Compound 227] next?
Output line: 0

Input line: Can you check `CON=C(c1cccc(OCC(F)(F)F)c1)c1c(O)c(C)nn(C)c1=O` next?
Output line: 40

Input line: Can you check `C#CCO/N=C(\c1c(O)c(C)nn(C)c1=O)c1cc(Cl)cc2ccccc12` next?
Output line: 70

Input line: Can you check `C#CCO/N=C(/c1cccc(Br)c1)c1c(O)c(C)nn(C)c1=O` next?
Output line: 80

Input line: Can you check CON=C(c1cc(F)cc(F)c1F)c1c(O)c(C)nn(C)c1=O [Compound 226] next?
Output line: 0

Input line: Can you check `C#CCO/N=C(\c1cccc(/C=C/Cl)c1)c1c(O)c(C)nn(C)c1=O` next?
Output line: 70

Input line: Can you check `Cc1nn(C)c(=O)c(C(=NOC(C)C)c2cc(Cl)cc(Cl)c2Cl)c1O` next?
Output line: 0

Input line: Can you check `C#CCO/N=C(\c1cccc(/C=C\Cl)c1)c1c(O)c(C)nn(C)c1=O` next?
Output line: 60

Input line: Can you check `CO/N=C(/c1c(O)c(Cl)nn(C)c1=O)c1ccc(F)c2ccccc12` next?
Output line: 20

Input line: Can you check `CC(C)O/N=C(\c1c(O)c(Cl)nn(C)c1=O)c1ccc(F)c2ccccc12` next?
Output line: 30

Input line: Can you check `CON=C(c1cc(Cl)cc(F)c1Cl)c1c(O)c(C)nn(C)c1=O` next?
Output line: 80

Input line: Can you check `C#CCO/N=C(/c1c(O)c(Cl)nn(C)c1=O)c1ccc(F)c2ccccc12` next?
Output line: 80

Input line: Can you check `C#CCO/N=C(\c1c(O)c(Cl)nn(C)c1=O)c1ccc(F)c2ccccc12` next?
Output line: 80

Input line: Can you check `CO/N=C(/c1c(O)c(C)nn(C)c1=O)c1cc(SC)cc2ccccc12` next?
Output line: 20

Input line: Can you check CON=C(c1cc(Cl)cc(Cl)c1F)c1c(O)c(C)nn(C)c1=O [Compound 299] next?
Output line: 80

Input line: Can you check `Cc1nn(C)c(=O)c(/C(=N/OC(C)C)c2cccc3cc(Cl)ccc23)c1O` next?
Output line: 0

Input line: Can you check `CON=C(c1c(OC(C)=O)c(Cl)nn(C)c1=O)c1ccc(F)c2ccccc12` next?
Output line: 20
